I'd appreciate it if you could supply melting point values for the items below.

These solved cases illustrate the format of a correct answer.
compound	reported.endpoint	result
Cc1c(C(F)(F)F)cc([N+](=O)[O-])c(Cl)c1[N+](=O)[O-]	melting point	81 to 82 °C
CC(Oc1cc(Cl)ccc1Cl)C(=O)OCc1ccccc1 (stereo unspecified)	melting point	56 to 58 °C
Cc1cccc(-c2cc3cnc(N)nc3nc2N)c1C	melting point	330 to 333 °C
COc1ccc(CCc2ccc(-c3ccc(OC(F)F)cc3)cc2)cc1	melting point	153 °C

Here are 5 compounds. What values of melting point were reported for them?
1. Cc1cc(CCCCCOc2ccc(C#N)cc2)no1
2. CC(C)(C)C(=O)C(Oc1ccccc1)C(=O)Nc1ccc(Cl)cc1Cl (stereo unspecified)
3. CCC1(C)OC(c2ccc(S(C)(=O)=O)cc2)=C(c2cc(F)cc(F)c2)C1=O (stereo unspecified)
4. Clc1cc(-c2nnn[nH]2)nc(Cl)c1Cl
5. COc1ccc(CSc2ccc(S(=O)(=O)N=CN(C)C)s2)cc1

61 to 62 °C
112 to 114 °C
122 to 124 °C
197 to 198 °C
92 to 101 °C

Here are 2 compounds. What values of melting point were reported for them?
1. COc1cc2c(c(Cl)c1Cl)SC(C1CCCC1)C2O (stereo unspecified)
2. C=Cc1ccc(NN2C(=O)c3ccccc3C2=O)cc1

["129 to 132 °C", "174 to 176 °C"]

* * *

I'd appreciate it if you could supply melting point values for the items below.

compound	reported.endpoint	result
O=C(c1ccc(Cl)cc1)c1cccc(Cl)c1[N+](=O)[O-]	melting point	147 to 148 °C
NC(=S)c1ncn2c1[C@@H]1CCCN1C(=O)c1c(Cl)cccc1-2	melting point	247 to 248 °C
CNC(=O)Nc1ccc(OCCCN2CCN(c3ccccc3)CC2)c(OC)c1	melting point	167 to 169 °C
CN1CCN(c2nn(-c3ccc(O)cc3)c3ccccc23)CC1	melting point	191 to 193 °C
CSc1nc(O)cc(-c2cccc(C#N)c2)n1	melting point	> 220 °C

Here are 8 compounds. What values of melting point were reported for them?
1. CCN(CC)S(=O)(=O)c1c(Cl)c(Cl)c(Cl)c2nc(C(F)(F)F)[nH]c12
2. COc1ccccc1C(=Cc1ccccc1[N+](=O)[O-])C(=O)O
3. COC(=O)C(C)(C)CCCOc1cc(C)c(NC(=O)C(C)(C)CCCOc2cc(C)ccc2C)cc1C
4. CCc1n[nH]c(CC)c1Oc1cc(Cl)cc(Cl)c1
5. C1=C(c2ccccc2)CCN(C2CC=C(c3ccccn3)CC2)C1 (stereo unspecified)
6. COc1ccccc1N1CCN(CCCNC(=O)c2cccc3c(=O)c(C)c(C4(c5ccccc5)CCCC4)oc23)CC1
7. Cc1nc[nH]c1CSCCNC(=O)NCCSCc1[nH]cnc1C
8. CNc1ccc(Cl)cc1

["155 to 157 °C", "217 to 219 °C", "60 to 62 °C", "114 to 115 °C", "143 to 144 °C", "171 to 172 °C", "225 to 228 °C", "72 to 74 °C"]

Here are 8 compounds. What values of melting point were reported for them?
1. COc1cc(C(=O)N2CCNC(C(=O)N(C)C)C2)cc(OC)c1OC (stereo unspecified)
2. OC1CC(O)C2CC1NN2 (stereo unspecified)
3. O=C(NCC1CC(=O)N(Cc2ccccc2)c2ccccc2N1C(=O)CN1C(=O)c2ccccc2C1=O)OCc1ccccc1 (stereo unspecified)
4. COC(=O)C=CC(=O)c1ccc(Oc2ccccc2)cc1
5. Cc1c(C)c(CC(C)(C)C#N)c(C)c(C)c1CC(C)(C)C#N
6. COc1cc(NC(=O)C(F)(F)F)ccc1N1CCN(CCN(C(=O)C2CCCCC2)c2ccccn2)CC1
7. Fc1ccc(-c2ccnc(Nc3ccc4c(c3)OCCO4)c2)cc1
8. CCOC(=O)c1ccc(OCCCCCCCCCCCOc2ccc(Cl)cc2)cc1

["167 to 168 °C", "203 to 205 °C", "219 to 221 °C", "88 to 90 °C", "187 to 190 °C", "144 to 148 °C", "134 to 135 °C", "94 to 95 °C"]

* * *

reported.endpoint: melting point

These solved cases illustrate the format of a correct answer.
molecule	melting point
CCn1ncc2c(NCC3CCCC(O)C3)c3cc([N+](=O)[O-])ccc3nc21 (stereo not drawn)	236 to 238 °C
CCCCc1nn(-c2ccccc2C(F)(F)F)c(=O)n1Cc1ccc(-c2ccccc2S(=O)(=O)NC(=O)OC(C)(C)C)cc1F	83 to 85 °C

Here are 5 molecules. What values of melting point were reported for them?
1. C=CCN(CC=C)Cc1csc(-c2ncn3c2[C@@H]2CCCN2C(=O)c2c(Cl)cccc2-3)n1
2. Fc1ccc(Cn2c(NC3CCN(CCNc4nccs4)CC3)nc3cncnc32)cc1
3. COc1ccc([C@@H]2Cc3c(cccc3C(F)(F)F)N(CC3=NCCN3C(=O)OC(C)(C)C)C(=O)[C@@H]2OC(C)=O)cc1
4. COC(=O)c1ccc(OCCNC(=O)c2ccc(Cl)cc2)cc1
5. CN1CCOc2cc(S(=O)(=O)n3c(COC(C)(C)C(=O)O)cc4cc(Cl)ccc43)ccc21

["186 to 187 °C", "165 °C", "105 to 108 °C", "125 to 127 °C", "148 to 150 °C"]

Here are 8 molecules. What values of melting point were reported for them?
1. O=C1CCC(N2Cc3c(OCc4cc(Cl)cc(Cl)c4)cccc3C2=O)C(=O)N1 (stereo not drawn)
2. [N-]=[N+]=Nc1ccc(C(=O)NCCCC[C@@H](C(=O)O)n2c3ccccc3c3ccccc32)cc1
3. CN1C(=O)C(C)(C)N=C(c2ccccc2F)c2cc(NC(=O)C(C)(C)N)ccc21
4. O=[N+]([O-])c1ccc(-c2nc(-c3ccc([N+](=O)[O-])cc3)c(-c3ccc([N+](=O)[O-])cc3)[nH]2)cc1
5. CCOC(=O)Cc1cc(O)ccc1CCc1cc2cc(C#N)ccc2o1
6. COc1nc(NC(=O)NS(=O)(=O)c2cscc2C)nc(OC)n1
7. CCCCn1cc(C(=O)O)c2ccccc21
8. Nc1ccc(OS(=O)(=O)c2ccc(-n3ccnc3)cc2)cc1[N+](=O)[O-]

271 to 273 °C
98 to 100 °C
250 °C
320 to 322 °C
84 to 86 °C
154 to 156 °C
124 to 126 °C
209 °C

Here are 8 molecules. What values of melting point were reported for them?
1. CC(C)(C)c1ccc(OCC(O)CN2CCC3(CC2)CSC2=C(O3)c3cc(Br)ccc3C(=O)C2=O)cc1 (stereo not drawn)
2. CCCCCCCCCCCCc1nnn(CC(=O)OCC)n1
3. CC(OCc1cc2nc(C(F)(F)F)ccc2n1S(=O)(=O)c1ccc2ncsc2c1)C(=O)O (stereo not drawn)
4. Cc1nc2cc3c(cc2n1C)C(=O)OC3=O
5. O=Cc1c(-c2ccc(F)cc2)n(CCF)c(=O)c2ccccc12
6. [N-]=[N+]=N[Si](c1ccccc1)(c1ccccc1)c1ccccc1
7. COC(=O)c1[nH]c2ccccc2c1Oc1ccccc1[N+](=O)[O-]
8. Cc1nnc(-c2ccc3occ(-c4ccc(S(=O)Cc5ccccc5C#N)cc4)c3c2)o1 (stereo not drawn)

1. 150 to 152 °C
2. 38 to 40 °C
3. 124 °C
4. 310 to 315 °C
5. 132 to 134 °C
6. 82 to 84 °C
7. 201 to 202 °C
8. 171 to 172 °C

* * *

reported.endpoint: melting point

These solved cases illustrate the format of a correct answer.
compound	result
Cc1ccc(O)c2c1C(=O)C(=O)N2Cc1ccccc1	255 to 262 °C
COc1cc(C=CCN(C)CCc2ccc(N=C(N)c3cccs3)cc2)cc(OC)c1O	153 to 154 °C
CCOP(=S)(OCC)ON=C1C=CC(=C(C#N)c2ccccc2)C=C1	66 to 82 °C
O=C(CCC(=O)N1CCC(c2ccc(Cl)cc2)CC1)c1ccc2c(c1)CN(Cc1ccccc1)CC2	102 to 103 °C
CCn1c(C(F)(F)F)n[nH]c1=O	54 °C

Here are 3 compounds. What values of melting point were reported for them?
1. CN1CC(CCN2CCN(c3cc(Cl)cc(Cl)c3)CC2)OC1=O (stereo unspecified)
2. CCCCCC(=O)Nc1ccc2ccn(CCCCCCCC(=O)OC)c2c1
3. CC1(C)Oc2ccc(C(=O)CO)cc2[C@H](NC(=O)c2cc(F)cc(F)c2)[C@H]1O

1: 89 to 90 °C; 2: 61 to 63 °C; 3: 179 °C

Here are 5 compounds. What values of melting point were reported for them?
1. O=C1CCCC(=O)C1C(=O)c1ccc(Cl)cc1Cl
2. CC(=O)Nc1ccc(C(=O)CCC(=O)O)cc1Cl
3. COc1ccc(C2Sc3cc(Cl)ccc3NC(=O)C2=O)cc1 (stereo unspecified)
4. COc1ccc(NC(=O)c2ccc(C)cc2O)cc1
5. CC(=O)Nc1c([N+](=O)[O-])cc([N+](=O)[O-])c2c1CCCC2

1. 138 to 140 °C
2. 168 to 170 °C
3. 168 to 169 °C
4. 185 to 186 °C
5. 203 °C

Here are 7 compounds. What values of melting point were reported for them?
1. Cc1c(-c2ccc(OCc3ccccc3)cc2)n(Cc2ccc(OCCN3[C@H](C)CCC[C@@H]3C)cc2)c2ccc(OCc3ccccc3)cc12
2. O=S(=O)(C(=CNc1nccs1)S(=O)(=O)c1ccccc1)c1ccccc1
3. CN(C)C1Cc2cccc3[nH]c(=S)n(c23)C1 (stereo unspecified)
4. O=c1[nH]c2ncc(-c3ccc(-c4n[nH]c(CN5CCOCC5)n4)cc3)nc2n1CC1CCOCC1
5. C#CCOc1c(OC)cc(/C=C/C(=O)/C=C/c2cc(OC)c(OCC#C)c(OC)c2)cc1OC
6. CCOC(=O)CCc1ccc2c(c1)c(-c1cc3cccnc3n1S(=O)(=O)c1ccc(C)cc1)cn2C
7. O=NN1CCc2cc(Cl)ccc21

["106 to 107 °C", "189 to 191 °C", "203 to 205 °C", "281 to 283 °C", "162 to 164 °C", "280 to 282 °C", "120 to 122 °C"]

For CC1=C(C2OC(=O)NC2=O)CCCC1 (stereo unspecified) , what is its reported melting point?
104 to 106 °C
